Values from patent US20260092061A1

Target: BRD9 (Homo sapiens)
Sequence (Q9H8M2 1-597): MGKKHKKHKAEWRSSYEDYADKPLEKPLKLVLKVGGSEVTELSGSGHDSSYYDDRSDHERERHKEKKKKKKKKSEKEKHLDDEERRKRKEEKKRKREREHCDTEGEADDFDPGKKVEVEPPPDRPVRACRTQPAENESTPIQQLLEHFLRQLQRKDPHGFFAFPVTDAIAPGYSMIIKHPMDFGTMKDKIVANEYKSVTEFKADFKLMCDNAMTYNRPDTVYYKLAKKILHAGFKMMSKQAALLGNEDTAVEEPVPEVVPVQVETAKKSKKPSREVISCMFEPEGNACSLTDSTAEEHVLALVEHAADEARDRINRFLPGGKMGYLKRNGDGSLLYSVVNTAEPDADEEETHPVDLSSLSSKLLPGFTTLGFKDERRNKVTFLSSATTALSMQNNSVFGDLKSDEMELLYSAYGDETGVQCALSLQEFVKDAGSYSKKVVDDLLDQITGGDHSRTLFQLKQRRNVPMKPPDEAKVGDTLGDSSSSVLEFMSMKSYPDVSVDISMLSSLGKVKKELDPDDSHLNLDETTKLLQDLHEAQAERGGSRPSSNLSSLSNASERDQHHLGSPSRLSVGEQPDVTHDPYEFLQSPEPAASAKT
Assay: BRD9 degradation, HiBiT-BRD9 KI HEK293 (LgBiT) cells, NanoGlo Lytic Endpoint assay (Assay Protocol 1)
Type: cell-based
Settings: HEK293; Table 2; BRD9 degradation, Assay Protocol 1; 1 μM compound at 6 h of treatment; read-out: Assay 1 Dmax
assay endpoint: Dmax at 1 µM

# compound COc1cc(-c2cn(C)c(=O)c(C)c2C)cc(OC)c1CN1CC2CC(C1)N2Cc1cccc2c1CCN(C(=O)/C(C#N)=C/C(C)(C)C)C2C (mixture of isomers) ; its Dmax at 1 µM = 70 to 75%

In plain terms, COc1cc(-c2cn(C)c(=O)c(C)c2C)cc(OC)c1CN1CCN(Cc2cccc3c2CCN(C(=O)/C(C#N)=C/c2ccc(C(F)(F)F)cn2)C3C)CC1 (mixture of isomers) has a documented Dmax at 1 µM of 40 to 70%

The compound listed as COc1cc(-c2cn(C)c(=O)c3cnccc23)cc(OC)c1CN1CCN(Cc2cccc3c2CCN(C(=O)/C(C#N)=C\c2ncc(C)s2)C3C)CC1 (mixture of isomers) has a reported Dmax at 1 µM of 40 to 70%

According to the records, this compound COc1cc(-c2cn(C)c(=O)c3cnccc23)cc(OC)c1CN1CCCN(Cc2cccc3c2CCN(C(=O)/C(C#N)=C/C(C)(C)C)C3C)CC1 (mixture of isomers) displays Dmax at 1 µM of 70 to 75%

The compound listed as COc1cc(-c2cn(C)c(=O)c3cnccc23)cc(OC)c1CN1CCN(Cc2cccc3c2CCN(C(=O)/C(C#N)=C/c2nccs2)C3C)CC1 (mixture of isomers) has a reported Dmax at 1 µM of 40 to 70%

Dmax at 1 µM in this record for COc1cc(-c2cn(C)c(=O)c(C)c2C)cc(OC)c1CN1CCN(Cc2cccc3c2CCN(C(=O)/C(C#N)=C/C(C)(C)C)C3C)CC1 (mixture of isomers) : 40 to 70%

Sample COc1cc(-c2cc(C)c(=O)n(C)c2)cc(OC)c1CN1CCN(Cc2cccc3c2CCN(C(=O)/C(C#N)=C/C(C)C)C3C)CC1 (mixture of isomers) ; Dmax at 1 µM observed: > 75%

Query COc1cc(-c2cn(C)c(=O)c(C)c2C)cc(OC)c1CN1CCN(Cc2cccc3c2CCN(C(=O)/C(C#N)=C/c2nccs2)C3C)CC1 (mixture of isomers) yields Dmax at 1 µM of 70 to 75%

The recorded Dmax at 1 µM for entry COc1cc(-c2cn(C)c(=O)c(C)c2C)cc(OC)c1CN1CCN(Cc2cccc3c2CCN(C(=O)/C(C#N)=C/C2CC2)C3C)CC1 (mixture of isomers) equals 40 to 70%

What the record says about COc1cc(-c2cn(C)c(=O)c(C)c2C)cc(OC)c1CN1CCN(Cc2cccc3c2CCN(C(=O)/C(C#N)=C/c2cccc(C(F)(F)F)n2)C3C)CC1 (mixture of isomers) : Dmax at 1 µM is 40 to 70%
